# PROTOCOL_SUMMARY: Solubility in presence of 25% Tween
# Type: physicochemical
MEASUREMENT_TYPE: solubility

I am curious: what solubility value has been reported for C/C(=N\NC(=O)[C@@H]1C(=O)NC[C@H]1c1ccccc1)c1cccc(Br)c1 (stereo in doubt; 3) ?
> 2000 µg/mL

----------
# MEASUREMENT_TARGET: Proteinase-activated receptor 2 (Homo sapiens, UniProt P55085)
# Sequence (P55085 whole entry): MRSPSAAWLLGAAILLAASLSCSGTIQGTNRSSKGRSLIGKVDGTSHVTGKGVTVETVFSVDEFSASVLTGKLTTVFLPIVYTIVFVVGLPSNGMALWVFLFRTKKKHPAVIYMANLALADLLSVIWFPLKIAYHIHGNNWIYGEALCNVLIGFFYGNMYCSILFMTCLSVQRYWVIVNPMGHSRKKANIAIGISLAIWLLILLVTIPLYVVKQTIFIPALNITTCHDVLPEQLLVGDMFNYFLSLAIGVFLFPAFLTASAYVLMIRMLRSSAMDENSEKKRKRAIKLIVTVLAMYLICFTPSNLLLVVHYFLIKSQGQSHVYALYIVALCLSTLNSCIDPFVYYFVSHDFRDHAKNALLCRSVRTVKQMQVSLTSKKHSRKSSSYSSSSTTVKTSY
# PROTOCOL_SUMMARY: Agonist activity at human PAR2 expressed in HEK293T cells assessed as effect on intracellular calcium mobilization by R-SAT assay
Listed next: entries and their corresponding pEC50.
Reminder that pEC50 is minus the log10 of a molar concentration.

>  <COMPOUND>
C/C(=N\NC(=O)[C@@H]1C(=O)NC[C@H]1c1ccccc1)c1cccc(Br)c1 (stereo in doubt; (+)-3)

>  <pEC50>
7.50

$$$$

I am curious: what pEC50 value has been reported for C/C(=N\NC(=O)C(NC(=O)c1ccccc1)c1n[nH]c(=O)c2ccccc12)c1cccc(Br)c1 (stereo not drawn) ?
6.70

I am curious: what pEC50 value has been reported for CC(C)=CN1C[C@@H](c2ccccc2)[C@H](C(=O)N/N=C(\C)c2cccc(Br)c2)C1=O ?
7.30

I am curious: what pEC50 value has been reported for C/C(=N\NC(=O)[C@@H]1C(=O)NC[C@H]1c1ccccc1)c1cccs1 ?
5.20

----------
# PROTOCOL_SUMMARY: Metabolic stability in rat liver microsomes assessed as intrinsic clearance
# Format: ADME, Microsome
Listed next: entries and their corresponding microsomal CLint.
Note: unit µL/min/mg is implicit; provide only the numeric part.

>  <COMPOUND>
C/C(=N\NC(=O)[C@@H]1C(=O)NC[C@H]1c1ccccc1)c1cccc(Br)c1 (stereo in doubt; 3)

>  <microsomal CLint (µL/min/mg)>
37

$$$$

Pending compound:
I am curious: what microsomal CLint value has been reported for C/C(=N\NC(=O)C(NC(=O)c1ccccc1)c1n[nH]c(=O)c2ccccc12)c1cccc(Br)c1 (configuration not stated) ?
6

----------
# MEASUREMENT_TARGET: Proteinase-activated receptor 2 (Homo sapiens) (UniProt P55085)
# PROTOCOL_SUMMARY: Agonist activity at human PAR2 expressed in HEK293T cells assessed as effect on intracellular calcium mobilization by R-SAT assay relative to SLIGRL-NH2
# Format: functional, cell-based
# CONDITION_DETAILS: HEK-293T
MEASUREMENT_TYPE: Efficacy (%)
Note: unit % is implicit; provide only the numeric part.

>  <COMPOUND>
C/C(=N\NC(=O)[C@@H]1C(=O)NC[C@H]1c1ccccc1)c1cccc(Br)c1 (stereo in doubt; (+)-3)

>  <QUANTITATIVE_READOUT>
91

$$$$
>  <COMPOUND>
CC(C)=CN1C[C@@H](c2ccccc2)[C@H](C(=O)N/N=C(\C)c2cccc(Br)c2)C1=O

>  <QUANTITATIVE_READOUT>
72

$$$$
>  <COMPOUND>
C/C(=N\NC(=O)[C@@H]1C(=O)NC[C@H]1c1ccccc1)c1ccc(Br)cc1

>  <QUANTITATIVE_READOUT>
32

$$$$
>  <COMPOUND>
C/C(=N\NC(=O)C(NC(=O)c1ccccc1)c1n[nH]c(=O)c2ccccc12)c1cccc(Br)c1 (stereo not given)

>  <QUANTITATIVE_READOUT>
81

$$$$

Pending compound:
Record lookup: for Proteinase-activated receptor 2 (Homo sapiens) (UniProt P55085), what Efficacy belongs to C/C(=N\NC(=O)[C@@H]1C(=O)NC[C@H]1c1ccccc1)c1cccc(Br)c1 (stereo in doubt; 3) ?
93
